# target of assay: T1, human SLITRK6 extracellular domain linked to his tag (human, UniProt Q9H5Y7 27-608)
# T1 construct: extracellular domain; also called huSLITRK6; Hu SLITRK6; not shown: his tag
# test protocol: BLI binning on huSLITRK6-his; Ab1 = row antibody first, then Ab2 (competitor) = phA290
Below, each entry is listed alongside its reported epitope binning signal.
Respond numerically, and do not add a unit to the figure.

Sirtratumab (antibody, V domains shown, Prior-art benchmark antibody; also called Sirtratuzumab) VH: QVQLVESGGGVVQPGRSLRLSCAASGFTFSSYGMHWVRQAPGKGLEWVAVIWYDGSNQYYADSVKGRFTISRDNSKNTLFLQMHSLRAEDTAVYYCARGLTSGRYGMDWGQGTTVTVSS VL: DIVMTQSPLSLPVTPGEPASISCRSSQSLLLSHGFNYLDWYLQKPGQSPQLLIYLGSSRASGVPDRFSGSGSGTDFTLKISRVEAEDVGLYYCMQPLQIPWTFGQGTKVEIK: 0.256
hu14G1-03 (antibody, V domains shown) VH: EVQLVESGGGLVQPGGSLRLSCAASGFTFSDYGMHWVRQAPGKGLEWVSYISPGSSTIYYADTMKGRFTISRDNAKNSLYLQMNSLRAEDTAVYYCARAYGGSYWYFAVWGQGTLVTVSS VL: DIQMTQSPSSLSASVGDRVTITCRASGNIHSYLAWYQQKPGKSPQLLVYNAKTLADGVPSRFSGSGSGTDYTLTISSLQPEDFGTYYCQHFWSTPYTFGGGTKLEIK: 0.326

# input binder: hu1H2-13 (antibody, V domains shown) VH: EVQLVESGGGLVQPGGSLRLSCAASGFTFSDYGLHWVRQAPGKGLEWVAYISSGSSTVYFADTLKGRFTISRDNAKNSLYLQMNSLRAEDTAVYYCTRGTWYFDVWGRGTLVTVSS VL: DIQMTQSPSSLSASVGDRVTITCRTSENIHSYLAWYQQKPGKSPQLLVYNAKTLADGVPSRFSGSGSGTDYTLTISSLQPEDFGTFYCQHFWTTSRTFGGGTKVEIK ; wanted: its epitope binning signal
0.302
